Assay: yeast display, Sf9 membrane polyspecificity reagent, FACS + sequencing; frameworks hold sequencing errors
experimental readout: polyreactivity (PSR sort gate)

- sequence text: "QVQLVESGGGLVQAGGSLRLCCAASGITFNYYTMGWYRQAAGNERELVAAIRSGGRTYYADSVKGRFTISRDNAKNTVYLQMNSLKPEDTAVYYGAALAVTYPYDYWGQGTQVTVSS"
  result: "high polyreactivity"
- sequence text: "QVQLVESGGGLVQAGGSLRLSCAASGSTIVYYAMGWYRQAPGKERELVAAITSDGSTDYADSVKGRFTISRDNAKNTVYLQMNSLKPEDTAVYYCAVVTFYFCTDYYDVDYWGQGTQVTVSS"
  result: "low polyreactivity"
- sequence text: "QVQLVESGGGLVQAGCSLRLSCAASGGIFSAYVMGWYRQAPGKERELVAAITRRGGATYYADSVKGRFTISRDNAKNTVYLQMNSLKPEDTAVYYCAADDQYYTEYYYWGQGTQVTVSS"
  result: "high polyreactivity"
- sequence text: "QVQLVESGGGLVQAGGSLRLSCAASGRTLGPYTMGWYRQAPGKERELVAVISSRTGRTYYADSVKGRFTISRDNAKNTVYLQMNSLKPEDTAVYYCNAGGRYHAPSGDYWGQGTQVTVSS"
  result: "low polyreactivity"
- sequence text: "QVQLVESGGGLVQAGGCLRLSCAASGSTFPIYDMGWYRQAPGKERELVAAITYSGGSTNYADSVKRRFTNSRDNAKTSVYFQMNSLKPDDTAVYYCAARYTAYIQSGMGYWGQGSQVTVSS"
  result: "high polyreactivity"

---

Assay: yeast display, Sf9 membrane polyspecificity reagent, FACS + sequencing; frameworks hold sequencing errors

- sequence text: "QVQLVESRGGLVQAGGSLRLSCAASGSTFGPYTMGWYRQAPGKERELDAAISWNGGRTSYADSVKGRFTLSRDNAKNTVYLQKNSLKPEDTAGYYCAAGYFVGIYKRFYWGQGTQVTVSS"
  polyreactivity (PSR sort gate): "high polyreactivity"
- sequence text: "QVQLVESGGGLVQAGGSLRLSCAASGRIFSNYAMGWYRQAPGKERELVAAISRGGGRTFYADSVKGRFTISRDNAKNTVYLQMNSLKPEDTAVYYCATRSYYVKGDYWGQGTQVNVSS"
  polyreactivity (PSR sort gate): "high polyreactivity"
- sequence text: "QVQHVESGGGLVQAGGSLRLSCAASGIIFYDKTMGWYRQAPGKERELVASITWRGGSTYYADSVKGRFTISRDNAKNTVYLQMNSLKPEDTAVYYCNADSSDDYDYWGQGTQVTVSS"
  polyreactivity (PSR sort gate): "low polyreactivity"
- sequence text: "QFQLVESGGGLVQAGGSLRLSCAASGRIFYGYAMVWYRQAPGKERDLVAAISWRGGRTYYADSVKGRFTISRDNAKNTVYLQMNSLKPEDTAVYYCNKVFPPQGQLRNMYYWGQGTQVTVSS"
  polyreactivity (PSR sort gate): "high polyreactivity"
- sequence text: "QVQLVESGGGLVQAGGSLRLSCAASGFTFHTYAMGWYRQAPGKERELVAAIDSSGGITYYADSVKGRFTISRDNAKNTVYLQMKSLKPEDTAVYYCAAVFLLFGFEWSYDYWGQGTQVTVSS"
  polyreactivity (PSR sort gate): "low polyreactivity"
- sequence text: "QFQLVESGGGLVQAGGSLRLSCAASGRIYGLYAKGWYRQAPGKERELVAAISSTGGRTFYADSVKGRFTISRDNAKNTVYFQMNSLKPDDTAVYYCAAYRYSRYRQRYNYCGQGTQVTVSS"
  polyreactivity (PSR sort gate): "high polyreactivity"
- sequence text: "QVQLQESGGGLVLAGGSLRLSCAESGYISWSFTMGWYRKAPGKEREFVAGITYGGITYYADSVKGRFTISRDNAKNTVYLQMNSLKPEDTAVYYCAAPQTYPYVYVYWGQGTQVTVSS"
  polyreactivity (PSR sort gate): "high polyreactivity"
- sequence text: "QVQLLESGGGLVQAGGSLRLSCAASGRTFRHNVMAWYRQAPGNERELVAAISYSRGSTHYADSVKGRFTISRDNAKNTVYFQMNSLKPEANAVYYCNRYSYDAHFLYPFRGHDYWGQGTQVTVTS"
  polyreactivity (PSR sort gate): "low polyreactivity"
- sequence text: "QVQLVESGGGLDQAGGRLRLSCAASGSIFSIYAMGRYRQAPGKERELVAAISSGGSTYADSVKGRFTISRDNAKNTVYLQMNSLKPEDTAVYYCAADRRGYRGYDYWGQGTQVTVSS"
  polyreactivity (PSR sort gate): "low polyreactivity"
- sequence text: "QVQLVESGGGLVQAGGSLRLSCAASGYTFRRYAMGWYRQAPGKERELVAAITSRGGSTYYADSVKGRFTISRDNAKNTVYLQMNSLKPEDTAVYYCAADASAYSVLTRDYWGQGTQVTVSS"
  polyreactivity (PSR sort gate): "high polyreactivity"
- sequence text: "QVQLVESRAGLVQAGGSLRLSCAASGRTSWVYAMGWYRHAPGKDRELVAAIRWRGSSTYYADSGKGRFTISRDNAKNTVYLQMNSLKPEVTAVYYCAAAFSFAQSFDSWGQGTQVTVSS"
  polyreactivity (PSR sort gate): "high polyreactivity"
- sequence text: "QVQLQESGGGLVQAGGSLGCAASGNISTRSEMGWYRQAPGKEREFVATINSGGITNYADSVKGRFTISRDNAKNTVYLRMNSLKPEDTAVYYRAVYGYFSDPYDYWGQGTQVTVSC"
  polyreactivity (PSR sort gate): "low polyreactivity"
- sequence text: "QVQLVESGGGLVQAGGSLRLSCAASGSTFGAYAMGWYRQAPGKEREFVAGISVRGGSTYYADSVKGRFTISRDNAKNTVYLQMNSLKPEDTAVYYCAARRVDTRFHVRYRYYYWGQGTQVTVSS"
  polyreactivity (PSR sort gate): "high polyreactivity"
- sequence text: "QVQLVESGGGLVQAGCSLRLSCAASGSTFSYIAMGWYRQAPGKERELVAAITSGSSTNYADSVKGRFTISRDNAKYTVYLQMNSLKPEDTAVSYCAADGYQDKYYWLETWVGYWGHGTQVTVSS"
  polyreactivity (PSR sort gate): "low polyreactivity"
- sequence text: "QVQLVESGGGLVQAGGSLRLSCAASGRIFRVYAMGWYRQEPGKERELVAGISFRGASTYYADSVKGRFTISRDNAKNTVYLQMNSLKPEDTAVYYCAAALPVQYRDMYSWGQGTQVTVSS"
  polyreactivity (PSR sort gate): "high polyreactivity"
- sequence text: "QVQLVESGGGLVQAGGSLRLSCAASGRIFSIYGMGWYRQAPGKEREFVASITYSGGSTYYADSVKGRFTISRDYAKNTVYLQMNSLKPEDTAVYYCNADIEKSYNYWGQGTQVTVSS"
  polyreactivity (PSR sort gate): "low polyreactivity"
- sequence text: "QVQLVESGGGLVEAGGSLRLSCAASGRTFFKYTMGWYRQAPGKERELVSAITGSGASTYYADSVKGRFTISRDNAKNTVYLQMNSLKPEDTAVYYCAAVLTVKKGDKYGYWGQGTQVTVSS"
  polyreactivity (PSR sort gate): "high polyreactivity"
- sequence text: "QVQLVETGGGLVQAGGSLRLSCAASGSTFFINAMGWYRQAPGKERELVAAITSTDSTTYADSVKGRFTISRDNAKNTVYLQMNSLKPEDTAVYYCAKESIGQDPVSGAWARHEYDYWGQGTQVTVSS"
  polyreactivity (PSR sort gate): "low polyreactivity"
- sequence text: "QGQLVESGGGLVQAGGSLRLSCAASGFTFQYYAMGWYRQAPGKDRELVAALSSSGGRTFYADSVKGRFTISRDNAKNTVYLQMNSLKAEDTAVYYCAAVWYGFLYYYWGQGTQVTVSS"
  polyreactivity (PSR sort gate): "high polyreactivity"
- sequence text: "QGQLVESGVGLVQAGGSLRLSCAASGLTFSWYAMGWYRQAPGKERELVAVITTSGGSTYYSDSVKGRFTISRDNAKNTVYLQMNSLKPEDTAVYYCAVGVPSWEFDYWGQGTHVTVSS"
  polyreactivity (PSR sort gate): "low polyreactivity"
- sequence text: "QVQLVESGGGLVQAGGSLRLSCAASGYTFGHYAMGWYRQAPGKERELVAVNTSGGSTNYADSVKGRFTISRDNAKNTVYLQMNSLKPEDTAVYDCAADLYFYYVWIRDYWGQGTQVTVSS"
  polyreactivity (PSR sort gate): "low polyreactivity"
